# Assay target: ESO157 A4 peptide (…)/HLA-A*02:01 complex on T2 cells (human)
# Method: FACS, peptide-pulsed T2 cells
Consider the cut-off 200. If the recorded MFI is strictly smaller, the label is satisfied; if not, the label is not satisfied.

Worked examples follow.
Binder	Class
phage clone #52, anti-ESO157/HLA-A*02:01 scFv displayed on phage (scFv, V domains shown) VH: QVQLVQSGAEVKKPGASVKVSCKASGYTFTSYGISWVRQAPGQGLEWMGWISAYNGNTNYAQKLQGRVTMTTDTSTSTAYMELRSLRSDDTAVYYCARYSGYYAGDSWGQGTLVTVSS VL: QSVLTQPPSVSGAPGQRVTISCTGSSSNIGAGYDVHWYQQLPGTAPKLLIYGDTNRPSGVPDRISGSKSGTSASLAITGLQAEDEADYYCQSYDSNLYTYVFGTGTKVTVLG	not satisfied
phage clone #66, anti-ESO157/HLA-A*02:01 scFv displayed on phage (scFv, V domains shown) VH: EVQLVESGAEVKRPGASVKVSCKASGYTFTSYGISWVRQAPGQGLEWMGRFIPNLNKGNSAHKFEGRVSFTADKFTNTAYMELRGLKSDDTAVYYCARGDYGSDQWGQGTLVTVSS VL: QSVLTQPPSVSGAPGQRVTISCTGSSSNIGAGYDVHWYQQLPGTAPKLLIYGNSNRPSGVPDRFSGSKSGTSASLAITGLQAEDEADYYCQSYDSSLSGSWVFGGGTKLTVLG	not satisfied
phage clone #116, anti-ESO157/HLA-A*02:01 scFv displayed on phage (scFv, V domains shown) VH: QVQLVQSGPEVKKPGASMKVSCKASGYTFTKYGISWVRQAPGQGLEWMGWISADSGKTSYAQNLQGRVSLTIDTSTATAYMELRSLRSDDTAVYYCARDDDSWGQGTLVTVSS VL: QSVLTQPPSVSAAPGQKVTISCSGSSSNIGNNYVSWYQQLPGTAPKLLIYDNNKRPSGIPDRFSGSKSGTSATLGITGLQTGDEADYYCGTWDSSLSAEVFGTGTKVTVLG	not satisfied
phage clone #148, anti-ESO157/HLA-A*02:01 scFv displayed on phage (scFv, V domains shown) VH: EVQLVQSGAEVKKPGASVKVSCKASGGTFSSYAISWVRQAPGQGLEWMGGIIPIFGTANYAQKFQGRVTITADKSTSTAYMELSSLRSEDTAVYYCARSYWSWTPYDPWGQGTLVTVSS VL: LPVLTQPPSVSVAPGKTARITCGGNNIGSKSVHWYQQKPGQAPVLVIYYDSDRPSGIPERFSGSNSGNTATLTISRVEAGDEADYYCQVWDSSSDHYVFGTGTKVTVLG	not satisfied
phage clone #76, anti-ESO157/HLA-A*02:01 scFv displayed on phage (scFv, V domains shown) VH: EVQLVQSGAEVKKPGSSVKVSCKASGGTFSSYAISWVRQAPGQGLEWMGGIIPIFGTANYAQKFQGRVTITADESTSTAYMELSSLRSEDTAVYYCARYDSYVYDEWGQGTLVTVSS VL: QSVVTQPPSLSGAPGQRVTISCNGSGSNIGAGYDVHWYQQLPGTAPKLLIYGNSNRPSGVPDRFSGSKSGTSASLAITGLQAEDEADYYCQSYDSSLSGWGIFGGGTKLTVLG	satisfied

Continue with the next binder.
Query: Consider the binder phage clone #35, anti-ESO157/HLA-A*02:01 scFv displayed on phage (scFv, V domains shown, also called parental phage clone #35) VH: QVQLVQSGAEVKKPGSSVKVSCKASGDTFSSYSISWVRQAPGQGLEWMGRIIPILGIANYAQKYQGRVTLSADKSTSTSYMELNSLRSEDTAVYYCARDWSYSIDYWGQGTLVTVSS VL: QSVVTQPPSVSAAPGQKVTISCSGSSSNIGNNYVSWYQQLPGTAPKLLIYDNNKRPSGIPDRFSGSKSGTSATLGITGLQTGDEADYYCGTWDSSLSAWVFGGGTKLTVLG . Is its MFI strictly less than 200?
Reply: satisfied
